Ref: PubChem BioAssay AID425

biological target: Dual specificity protein phosphatase 6 (Rattus norvegicus) (UniProt Q64346); test: MKP-3 phosphatase inhibitors, primary screen, biochemical, rat enzyme, in vitro (AID 425); details: recombinant MKP-3 phosphatase activity, fluorescence; at 20 µM; hits give high values;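 further: plate controls were vehicle for no effect and reference inhibitor for full effect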
Sequence (Q64346 whole entry, looked up): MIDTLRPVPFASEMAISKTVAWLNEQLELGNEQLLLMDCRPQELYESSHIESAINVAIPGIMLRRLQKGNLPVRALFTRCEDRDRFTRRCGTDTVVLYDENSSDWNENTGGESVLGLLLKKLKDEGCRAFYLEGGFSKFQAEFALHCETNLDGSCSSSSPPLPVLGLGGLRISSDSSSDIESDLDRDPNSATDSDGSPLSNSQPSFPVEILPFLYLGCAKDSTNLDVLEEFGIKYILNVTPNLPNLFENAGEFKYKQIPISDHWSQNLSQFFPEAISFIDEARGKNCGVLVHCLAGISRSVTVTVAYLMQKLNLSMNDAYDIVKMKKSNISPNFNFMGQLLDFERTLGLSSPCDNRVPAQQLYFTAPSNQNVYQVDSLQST
The whole screen tested about 110,000 compounds, of which about 190 (0.17%) were called active. The sample holds actives, similar compounds and a random draw of the others, so the mix is not that of the screen. Results with a measured potency or affinity are listed apart.
readout_name: inhibition (%)
Answers are plain numbers, in %.

Here is how some molecules turned out for inhibition.
Q. Please look up its inhibition: Cc1cc(NC(=O)c2nn3c(c2Cl)NC(c2ccc(Br)cc2)CC3C(F)(F)F)no1 (configuration not stated)
A. -0.7

Q. Item `CN1C(=O)NC(=O)/C(=C/c2ccc(-c3ccc(Cl)cc3)o2)C1=O` has what recorded inhibition?
A. 39.8

Q. I have this molecule here, `Cc1ccc2nc(NC(=O)c3ccccc3)sc2c1` , and I need its recorded inhibition.
A. 1.9

For each of the molecules below, state inhibition.
1. COc1ccc(Cn2c(C)ccc2C)cc1
2. CN1C(=O)NC(=O)/C(=C/c2ccc(-c3ccc([N+](=O)[O-])cc3Cl)o2)C1=O
3. COc1ccc(/C=C/C(=O)Nc2ccc(C)c([N+](=O)[O-])c2)cc1OC

A.
0.3
12
-0.5

---

target: Dual specificity protein phosphatase 6 (Rattus norvegicus); test: MKP-3 phosphatase inhibitors, primary screen, biochemical, rat enzyme, in vitro (AID 425); details: recombinant MKP-3 phosphatase activity, fluorescence; at 20 µM; hits give high values;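 further: plate controls were vehicle for no effect and reference inhibitor for full effect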
The whole screen tested about 110,000 compounds, of which about 190 (0.17%) were called active. This excerpt belongs to a sample that is enriched for actives. Entries with a potency or affinity are not part of this list.
readout_name: inhibition

Q. Returns the measured inhibition for the input molecule. Input: `O=C1NN(c2ccccc2)C(=O)/C1=C/c1ccc(Br)o1`
A. 75.8% (active)

Q. Consider the molecule shown here: `Cc1ccc(NC(=O)C(=O)NCC(C)C)cc1` What is its recorded inhibition?
A. -6.8% (inactive)

Q. Returns the measured inhibition for the input molecule. Input: `CC(=O)NN1C(=O)/C(=C/c2cc3c(cc2[N+](=O)[O-])OCO3)SC1=S`
A. 119% (active)

Q. Would you kindly share the measured inhibition for `O=C1/C(=C\c2cc3c(cc2[N+](=O)[O-])OCO3)SC(=S)N1c1ccccc1` ?
A. 5.2% (inactive)

Q. Fill in: inhibition of `Cc1ccc(NC(=O)COc2ccc(Br)cc2)c(C)c1` is ___
A. 2.7% (inactive)

Parameter requested: inhibition. Apply to each item below.
1. O=C1NN(c2ccccc2)C(=O)/C1=C/c1ccc(-c2ccc(F)cc2)o1
2. COc1ccc(OC)c(CNC(=O)COc2cc(=O)n(C)c3ccccc23)c1
3. Cc1ccc(NC(=O)C(=O)N/N=C/c2cccs2)cc1
4. C=CCN1C(=O)/C(=C\c2cc3c(cc2Br)OCO3)SC1=S

A.
1: -3.3% (inactive); 2: -0.9% (inactive); 3: 0.5% (inactive); 4: 0.3% (inactive)

Report inhibition for every entry below.
1. Cc1ccc(-c2nc(NC(=O)CSc3nnnn3-c3ccccc3)ns2)cc1
2. Cc1ccc(-c2nc(NC(=O)CSc3nnc(C)s3)ns2)cc1
3. CCOc1ccc(N(CC(=O)NCc2ccccc2)S(C)(=O)=O)cc1

A.
1. 2.1% (inactive)
2. 6.1% (inactive)
3. -13.8% (inactive)
